Where these numbers come from: the Immune Epitope Database (IEDB)

# tested-system: HLA-A*33:01
# assay-comment: IEDB peptide-MHC binding, purified MHC/competitive/radioactivity; filed as Kd, often an IC50 or EC50 that approximates it; bounds were set here for any values at or beyond the usual limits of such assays
# cond: source organism: Triticum aestivum
pKd: −log10 of the molar value.
measurement-name: pKd

>  <polymer-sequence>
LQQHNIVHGK

>  <data-value>
≤ 4.15

$$$$

---

# tested-system: HLA-B*15:42
# assay-comment: IEDB peptide-MHC binding, purified MHC/competitive/fluorescence; filed as Kd, often an IC50 or EC50 that approximates it; bounds were set here for any values at or beyond the usual limits of such assays
# cond: source organism: Escherichia coli F11
pKd: −log10 of the molar value.
measurement-name: pKd

>  <polymer-sequence>
MTYSHHACR

>  <tested-system>
HLA-B*15:42

>  <data-value>
≤ 5.30

$$$$

---

# tested-system: HLA-A*01:01
# assay-comment: IEDB peptide-MHC binding, purified MHC/competitive/radioactivity; filed as Kd, often an IC50 or EC50 that approximates it; bounds were set here for any values at or beyond the usual limits of such assays
# cond: source organism: Hepacivirus hominis

>  <polymer-sequence>
RPALVFDITK

>  <Kd>
≥ 51.3 µM

$$$$

---

# tested-system: HLA-A*02:03
# assay-comment: IEDB peptide-MHC binding, purified MHC/competitive/fluorescence; filed as Kd, often an IC50 or EC50 that approximates it; bounds were set here for any values at or beyond the usual limits of such assays
# cond: source organism: Plasmodium yoelii yoelii
measurement-name: Kd

>  <polymer-sequence>
KPPRGVLLY

>  <measurement-name>
Kd

>  <data-value>
≥ 20 µM

$$$$

---

# tested-system: HLA-A*24:02
# assay-comment: IEDB peptide-MHC binding, purified MHC/competitive/radioactivity; filed as Kd, often an IC50 or EC50 that approximates it; bounds were set here for any values at or beyond the usual limits of such assays
# cond: source organism: Dengue virus 4 Philippines/H241/1956
pKd: −log10 of the molar value.
measurement-name: pKd

>  <polymer-sequence>
CYSQVNPTTL

>  <data-value>
6.49

$$$$

---

# tested-system: HLA-A*11:01
# assay-comment: IEDB peptide-MHC binding, purified MHC/competitive/radioactivity; filed as Kd, often an IC50 or EC50 that approximates it; bounds were set here for any values at or beyond the usual limits of such assays
# cond: source organism: Vaccinia virus WR
pKd: −log10 of the molar value.

>  <polymer-sequence>
PAGRPNYVK

>  <relation-qualifier>
=

>  <pKd>
6.68

$$$$
>  <polymer-sequence>
ILAALFMYY

>  <relation-qualifier>
=

>  <pKd>
9.51

$$$$
>  <polymer-sequence>
IISIRPRVTK

>  <relation-qualifier>
=

>  <pKd>
6.90

$$$$
>  <polymer-sequence>
VTPEYIKDLK

>  <relation-qualifier>
=

>  <pKd>
6.28

$$$$
>  <polymer-sequence>
AVNKSNKPLK

>  <relation-qualifier>
=

>  <pKd>
6.83

$$$$
>  <polymer-sequence>
KLILAEYIR

>  <relation-qualifier>
=

>  <pKd>
4.82

$$$$
>  <polymer-sequence>
VIEYAKSISK

>  <relation-qualifier>
=

>  <pKd>
6.78

$$$$
>  <polymer-sequence>
LVYIFEPEK

>  <relation-qualifier>
=

>  <pKd>
7.60

$$$$
>  <polymer-sequence>
LIKTILASY

>  <relation-qualifier>
=

>  <pKd>
5.10

$$$$
>  <polymer-sequence>
HIIDSFNIR

>  <relation-qualifier>
=

>  <pKd>
6.83

$$$$
>  <polymer-sequence>
EIARIENEMK

>  <relation-qualifier>
=

>  <pKd>
5.44

$$$$
>  <polymer-sequence>
VLKAMHDKK

>  <relation-qualifier>
=

>  <pKd>
6.44

$$$$
>  <polymer-sequence>
TINVNSLALK

>  <relation-qualifier>
=

>  <pKd>
7.73

$$$$
>  <polymer-sequence>
DFRDYQSYR

>  <relation-qualifier>
=

>  <pKd>
4.87

$$$$
>  <polymer-sequence>
RSAFNDDGIY

>  <relation-qualifier>
≤

>  <pKd>
4.18

$$$$
>  <polymer-sequence>
SSRVDRYSK

>  <relation-qualifier>
=

>  <pKd>
7.77

$$$$
>  <polymer-sequence>
KFAEESYTY

>  <relation-qualifier>
=

>  <pKd>
4.78

$$$$
>  <polymer-sequence>
GLYNHNNTTY

>  <relation-qualifier>
=

>  <pKd>
7.12

$$$$
>  <polymer-sequence>
FIQWTGGNIR

>  <relation-qualifier>
≤

>  <pKd>
4.66

$$$$
>  <polymer-sequence>
DSDVSLIIEY

>  <relation-qualifier>
=

>  <pKd>
5.56

$$$$
>  <polymer-sequence>
RAVKFAEESY

>  <relation-qualifier>
=

>  <pKd>
4.84

$$$$

---

# tested-system: HLA-B*58:01
# assay-comment: IEDB peptide-MHC binding, purified MHC/competitive/fluorescence; filed as Kd, often an IC50 or EC50 that approximates it; bounds were set here for any values at or beyond the usual limits of such assays
# cond: source organism: Shigella flexneri 2a str. 2457T
pKd: −log10 of the molar value.

>  <polymer-sequence>
MSPDNALIY

>  <pKd>
6.34

$$$$

---

# tested-system: HLA-A*26:01
# assay-comment: IEDB peptide-MHC binding, purified MHC/direct/fluorescence; filed as Kd, often an IC50 or EC50 that approximates it; bounds were set here for any values at or beyond the usual limits of such assays
# cond: source organism: Influenza A virus(A/swine/Shandong/fZC/2003(H9N2))
pKd: −log10 of the molar value.

>  <polymer-sequence>
IAGFIEGGW

>  <pKd>
≤ 4.70

$$$$

---

# tested-system: HLA-A*03:01
# assay-comment: IEDB peptide-MHC binding, purified MHC/direct/fluorescence; filed as Kd, often an IC50 or EC50 that approximates it; bounds were set here for any values at or beyond the usual limits of such assays
# cond: source organism: Orthohantavirus tulaense
measurement-name: Kd

>  <polymer-sequence>
MSRKLHRYI

>  <data-value>
≥ 20 µM

$$$$

---

# tested-system: HLA-A*02:03
# assay-comment: IEDB peptide-MHC binding, purified MHC/competitive/fluorescence; filed as Kd, often an IC50 or EC50 that approximates it; bounds were set here for any values at or beyond the usual limits of such assays
# cond: source organism: Francisella tularensis subsp. tularensis FSC198

>  <polymer-sequence>
EFKRRLKDL

>  <Kd>
≥ 20 µM

$$$$

---

# tested-system: HLA-A*02:01
# assay-comment: IEDB peptide-MHC binding, purified MHC/competitive/fluorescence; filed as Kd, often an IC50 or EC50 that approximates it; bounds were set here for any values at or beyond the usual limits of such assays
# cond: source organism: Salmonella enterica subsp. enterica serovar Typhi
pKd: −log10 of the molar value.

>  <polymer-sequence>
SVIDHIHYM

>  <pKd>
8.31

$$$$

---

Reported values of Kd for individual entries
# tested-system: HLA-B*27:05
# assay-comment: IEDB peptide-MHC binding, purified MHC/direct/fluorescence; filed as Kd, often an IC50 or EC50 that approximates it; bounds were set here for any values at or beyond the usual limits of such assays
# cond: source organism: Escherichia coli O157:H7

>  <polymer-sequence>
MLKLRQARL

>  <Kd>
≥ 20 µM

$$$$
>  <polymer-sequence>
RRHPMRLRK

>  <Kd>
0.0248 µM

$$$$
>  <polymer-sequence>
HEVHAVWPG

>  <Kd>
≥ 20 µM

$$$$

---

# tested-system: HLA-A*03:01
# assay-comment: IEDB peptide-MHC binding, purified MHC/direct/fluorescence; filed as Kd, often an IC50 or EC50 that approximates it; bounds were set here for any values at or beyond the usual limits of such assays
# cond: source organism: Yersinia pestis Nepal516
Consider the following sequences and their measured Kd readings.
measurement-name: Kd

>  <polymer-sequence>
LSEEIGLDL

>  <data-value>
≥ 20 µM

$$$$
>  <polymer-sequence>
WLWVSSSDM

>  <data-value>
≥ 20 µM

$$$$

---

# tested-system: HLA-A*11:01
# assay-comment: IEDB peptide-MHC binding, purified MHC/direct/fluorescence; filed as Kd, often an IC50 or EC50 that approximates it; bounds were set here for any values at or beyond the usual limits of such assays
# cond: source organism: Yersinia pestis Nepal516
Measured Kd by item

>  <polymer-sequence>
LSEEIGLDL

>  <tested-system>
HLA-A*11:01

>  <Kd>
≥ 20 µM

$$$$
>  <polymer-sequence>
WLWVSSSDM

>  <tested-system>
HLA-A*11:01

>  <Kd>
≥ 20 µM

$$$$

---

# tested-system: HLA-B*44:03
# assay-comment: IEDB peptide-MHC binding, purified MHC/competitive/fluorescence; bounds were set here for any values at or beyond the usual limits of such assays
# cond: source organism: Monodelphis domestica
measurement-name: IC50

>  <polymer-sequence>
YSLEYFQFVKK

>  <data-value>
≥ 20 µM

$$$$
